Reference source: ChEMBL document CHEMBL1143461

Measurement record for UniProt P25774; quantity recorded: pIC50.
Sequence (P25774 whole entry): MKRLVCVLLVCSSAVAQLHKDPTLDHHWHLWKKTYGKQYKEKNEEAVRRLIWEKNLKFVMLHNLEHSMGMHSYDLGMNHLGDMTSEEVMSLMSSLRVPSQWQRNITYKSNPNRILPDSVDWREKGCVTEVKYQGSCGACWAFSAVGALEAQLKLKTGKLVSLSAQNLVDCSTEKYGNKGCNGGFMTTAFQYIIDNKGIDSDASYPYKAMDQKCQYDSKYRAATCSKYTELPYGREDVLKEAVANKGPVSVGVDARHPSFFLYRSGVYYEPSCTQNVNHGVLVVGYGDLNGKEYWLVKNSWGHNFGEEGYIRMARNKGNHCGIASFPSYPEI
pIC50: −log10 of the molar value.
observed.property: pIC50

A: CC(C)CC(NC(c1ccc(-c2ccc(N3CCNCC3)cc2)cc1)C(F)(F)F)C(=O)NCC#N (stereo not drawn)
B: CC(C)C[C@H](NC(c1ccc(Br)cc1)C(F)(F)F)C(=O)NCC#N (stereo partly drawn)
Could you tell me which of these two has the smaller pIC50 figure? First: A Second: B Identify your selection by its label.
A
(A: 6.04, B: 6.92)

----------
# tested.system: Cathepsin K (Homo sapiens, UniProt P43235)
# method.summary: Inhibitory activity against cathepsin K (10 pM) using humanized rabbit enzyme
# Set-up: species or system Oryctolagus cuniculus
pIC50: −log10 of the molar value.
observed.property: pIC50

Record request: pIC50 value, item "CC(C)C[C@H](N[C@@H](c1ccc(-c2ccc(N3CCNCC3)cc2)cc1)C(F)(F)F)C(=O)NCC#N"
≥ 11.30
